Each entry below carries its recorded Normalized average relative binding affinity(ARB).
MEASURED_ON: H-2 K^d (Mus musculus, UniProt P01902)
Type: binding
ENDPOINT_NAME: Normalized average relative binding affinity(ARB)

{"columns": ["ENTRY_SEQUENCE", "MEASURED_ON", "RESULT"],
 "data": [
  ["XXXXYXXXX [3064.0100]", "H-2 K^d (Mus musculus, UniProt P01902)", 0.015],
  ["XXXXXXXIX [3064.0148]", "H-2 K^d (Mus musculus, UniProt P01902)", 0.30],
  ["XXXXXXXCX [3064.0142]", "H-2 K^d (Mus musculus, UniProt P01902)", 0.28],
  ["XXXXXXHXX [3064.0127]", "H-2 K^d (Mus musculus, UniProt P01902)", 0.33],
  ["XXXXXXXSX [3064.0156]", "H-2 K^d (Mus musculus, UniProt P01902)", 0.61],
  ["XXXXXNXXX [3064.0112]", "H-2 K^d (Mus musculus, UniProt P01902)", 0.22],
  ["XXXXXXXLX [3064.0150]", "H-2 K^d (Mus musculus, UniProt P01902)", 0.43],
  ["XXXXXXXEX [3064.0144]", "H-2 K^d (Mus musculus, UniProt P01902)", 0.55],
  ["XXXXXXRXX [3064.0135]", "H-2 K^d (Mus musculus, UniProt P01902)", 0.11],
  ["XXXXXXEXX [3064.0124]", "H-2 K^d (Mus musculus, UniProt P01902)", 0.14],
  ["XXXXXEXXX [3064.0104]", "H-2 K^d (Mus musculus, UniProt P01902)", 0.083],
  ["XXXXXHXXX [3064.0107]", "H-2 K^d (Mus musculus, UniProt P01902)", 0.31],
  ["XXXXXXIXX [3064.0128]", "H-2 K^d (Mus musculus, UniProt P01902)", 0.045],
  ["XXXXXXXYX [3064.0160]", "H-2 K^d (Mus musculus, UniProt P01902)", 0.56],
  ["XXXXXXXWX [3064.0159]", "H-2 K^d (Mus musculus, UniProt P01902)", 0.26],
  ["XXXTXXXXX [3064.0077]", "H-2 K^d (Mus musculus, UniProt P01902)", 0.21],
  ["XXXXXXXFX [3064.0145]", "H-2 K^d (Mus musculus, UniProt P01902)", 0.66],
  ["XXXXXXDXX [3064.0123]", "H-2 K^d (Mus musculus, UniProt P01902)", 0.051],
  ["XXXXXRXXX [3064.0115]", "H-2 K^d (Mus musculus, UniProt P01902)", 1.0],
  ["XXXXLXXXX [3064.0090]", "H-2 K^d (Mus musculus, UniProt P01902)", 0.18],
  ["XXXXXXYXX [3064.0140]", "H-2 K^d (Mus musculus, UniProt P01902)", 0.11],
  ["XXXXXQXXX [3064.0114]", "H-2 K^d (Mus musculus, UniProt P01902)", 0.19],
  ["XXXXMXXXX [3064.0091]", "H-2 K^d (Mus musculus, UniProt P01902)", 0.60],
  ["XXXHXXXXX [3064.0067]", "H-2 K^d (Mus musculus, UniProt P01902)", 0.22],
  ["XXXXXXTXX [3064.0137]", "H-2 K^d (Mus musculus, UniProt P01902)", 1.0],
  ["XXXXXMXXX [3064.0111]", "H-2 K^d (Mus musculus, UniProt P01902)", 0.31],
  ["XXXPXXXXX [3064.0073]", "H-2 K^d (Mus musculus, UniProt P01902)", 0.48],
  ["XXXXNXXXX [3064.0092]", "H-2 K^d (Mus musculus, UniProt P01902)", 0.21],
  ["XXXMXXXXX [3064.0071]", "H-2 K^d (Mus musculus, UniProt P01902)", 0.22],
  ["XXXXXWXXX [3064.0119]", "H-2 K^d (Mus musculus, UniProt P01902)", 0.29],
  ["XXXXXXXTX [3064.0157]", "H-2 K^d (Mus musculus, UniProt P01902)", 0.52],
  ["XXXXXKXXX [3064.0109]", "H-2 K^d (Mus musculus, UniProt P01902)", 0.36]
]}

----------
MEASURED_ON: HLA B*1503 (Homo sapiens, UniProt P01889, A329T/A93T/A95T/C349S/D201E/D98Y/E187L/E204Q/K202T/N87E/Q94N/R155S/R180L/S121R/S35A/V306I/V36M/Y140S/Y91S)
ASSAY_NAME: biochemical
Format: binding
pIC50: −log10 of the molar value. Where a SMILES comes first, the peptide text is derived from it.
Each entry below carries its recorded pIC50.

{"columns": ["COMPOUND", "pIC50"],
 "data": [
  ["CC[C@H](C)[C@H](N)C(=O)N[C@@H](CCC(N)=O)C(=O)N[C@@H](Cc1ccccc1)C(=O)N[C@@H](CCSC)C(=O)N[C@@H](Cc1c[nH]cn1)C(=O)N[C@@H](CCC(=O)O)C(=O)N[C@@H](CCC(N)=O)C(=O)NCC(=O)N[C@@H](Cc1ccc(O)cc1)C(=O)O [3102.1159] (H-IQFMHEQGY-OH)", 8.43],
  ["CC[C@H](C)[C@H](N)C(=O)N[C@@H](CCCCN)C(=O)N[C@@H](Cc1ccccc1)C(=O)N[C@@H](C)C(=O)N[C@@H](C)C(=O)NCC(=O)N[C@H](C(=O)N[C@H](C(=O)N[C@H](C(=O)O)[C@@H](C)CC)[C@@H](C)CC)[C@@H](C)CC [3102.1198] (H-IKFAAGIII-OH)", 7.80],
  ["CC[C@H](C)[C@H](N)C(=O)N[C@@H](CC(C)C)C(=O)N[C@@H](Cc1c[nH]cn1)C(=O)N[C@@H](CO)C(=O)N[C@@H](CC(=O)O)C(=O)N[C@@H](Cc1ccc(O)cc1)C(=O)N[C@@H](CCC(N)=O)C(=O)N[C@@H](CC(C)C)C(=O)N[C@@H](Cc1ccccc1)C(=O)O [3102.1141] (H-ILHSDYQLF-OH)", 8.62],
  ["CC(C)C[C@H](NC(=O)[C@H](CO)NC(=O)[C@H](CC(C)C)NC(=O)CNC(=O)[C@H](CS)NC(=O)[C@H](CO)NC(=O)[C@H](Cc1ccccc1)NC(=O)[C@H](CCCCN)NC(=O)[C@@H](N)Cc1ccc(O)cc1)C(=O)O [3102.1230] (H-YKFSCGLSL-OH)", 9.89]
]}

----------
MEASURED_ON: HLA B*1503 (Homo sapiens, UniProt P01889, A329T/A93T/A95T/C349S/D201E/D98Y/E187L/E204Q/K202T/N87E/Q94N/R155S/R180L/S121R/S35A/V306I/V36M/Y140S/Y91S)
ASSAY_NAME: biochemical
Format: binding
pIC50: −log10 of the molar value. Where a SMILES comes first, the peptide text is derived from it.
Each entry below carries its recorded pIC50.
ENDPOINT_NAME: pIC50

{"columns": ["COMPOUND", "ENDPOINT_NAME", "READOUT_NUMBER"],
 "data": [
  ["CSCC[C@H](NC(=O)[C@H](CCCCN)NC(=O)[C@H](CS)NC(=O)[C@H](CO)NC(=O)[C@H](CO)NC(=O)[C@H](CCC(N)=O)NC(=O)[C@@H](N)CCCNC(=N)N)C(=O)N[C@@H](C)C(=O)N[C@@H](CC(C)C)C(=O)O [3102.1299] (H-RQSSCKMAL-OH)", "pIC50", 7.72],
  ["CC[C@H](C)[C@H](NC(=O)CNC(=O)[C@H](CC(C)C)NC(=O)[C@H](CCSC)NC(=O)[C@H](CO)NC(=O)[C@@H](N)Cc1ccccc1)C(=O)N[C@@H](Cc1c[nH]c2ccccc12)C(=O)N[C@@H](Cc1ccccc1)C(=O)N[C@@H](Cc1ccccc1)C(=O)O [3102.1113] (H-FSMLGIWFF-OH)", "pIC50", 7.55],
  ["CC(C)C[C@H](NC(=O)[C@H](CC(N)=O)NC(=O)[C@H](CC(C)C)NC(=O)[C@H](CCCNC(=N)N)NC(=O)[C@H](CCCNC(=N)N)NC(=O)[C@H](CO)NC(=O)[C@H](CCCCN)NC(=O)[C@@H](N)CO)C(=O)N[C@@H](Cc1ccccc1)C(=O)O [3102.1061] (H-SKSRRLNLF-OH)", "pIC50", 8.62],
  ["CC[C@H](C)[C@H](N)C(=O)N[C@@H](CCCCN)C(=O)N[C@H](C(=O)N[C@H](C(=O)N[C@@H](C)C(=O)N[C@@H](C)C(=O)N[C@@H](CO)C(=O)N1CCC[C@H]1C(=O)N[C@@H](CCSC)C(=O)O)[C@@H](C)O)C(C)C [3102.1251] (H-IKVTAASPM-OH)", "pIC50", 8.55],
  ["CSCC[C@H](NC(=O)[C@H](C)NC(=O)[C@H](CCCCN)NC(=O)[C@@H](N)Cc1ccccc1)C(=O)N[C@@H](Cc1c[nH]c2ccccc12)C(=O)N[C@@H](CCCCN)C(=O)N[C@@H](Cc1ccc(O)cc1)C(=O)N1CCC[C@H]1C(=O)N[C@@H](Cc1ccccc1)C(=O)O [3102.1182] (H-FKAMWKYPF-OH)", "pIC50", 9.96],
  ["CC[C@H](C)[C@H](NC(=O)[C@H](CC(=O)O)NC(=O)[C@@H](NC(=O)[C@H](Cc1ccccc1)NC(=O)[C@@H](NC(=O)[C@H](CCCCN)NC(=O)[C@@H](N)Cc1ccc(O)cc1)C(C)C)[C@@H](C)O)C(=O)N[C@@H](CO)C(=O)N[C@@H](CCSC)C(=O)O [3102.1298] (H-YKVFTDISM-OH)", "pIC50", 8.66],
  ["CC[C@H](C)[C@H](N)C(=O)N[C@H](C(=O)N[C@@H](Cc1ccccc1)C(=O)N[C@@H](CCSC)C(=O)N[C@@H](CC(N)=O)C(=O)N[C@@H](CC(C)C)C(=O)N[C@@H](Cc1ccc(O)cc1)C(=O)N[C@@H](CO)C(=O)N[C@@H](Cc1ccccc1)C(=O)O)[C@@H](C)CC [3102.1328] (H-IIFMNLYSF-OH)", "pIC50", 7.96]
]}
